Parameter: IC50. Scope: all listed entries.
# measured.on: His-tagged KRAS G12D protein (Homo sapiens, UniProt P01116, G12D)
# Sequence (P01116 1-188 isoform P01116-2 G12D): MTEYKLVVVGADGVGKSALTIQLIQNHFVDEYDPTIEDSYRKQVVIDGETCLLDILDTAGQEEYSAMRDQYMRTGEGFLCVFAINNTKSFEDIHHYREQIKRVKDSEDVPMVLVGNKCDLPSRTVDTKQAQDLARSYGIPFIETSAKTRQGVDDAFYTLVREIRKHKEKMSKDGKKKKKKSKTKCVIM
# experiment: biochemical
measurement.label: IC50

>  <compound>
CCc1c(F)ccc2cc(O)cc(-c3ncc4c(N5CCCC(F)(F)CC5)nc(OC[C@@]56CCCN5C[C@H](F)C6)nc4c3F)c12 [Example 149]

>  <measurement.label>
IC50

>  <assay.value>
12 nM

$$$$
>  <compound>
CCc1c(F)ccc2cc(O)cc(-c3ncc4c(N5CC6CC(C#N)C(C6)C5)nc(OC[C@@]56CCCN5C[C@H](F)C6)nc4c3F)c12 (single isomer, unassigned) [Example 145]

>  <measurement.label>
IC50

>  <assay.value>
8 nM

$$$$
>  <compound>
CCc1c(F)ccc2cc(O)cc(-c3ncc4c(N5CCCC(C)(OC)C5)nc(OC[C@@]56CCCN5C[C@H](F)C6)nc4c3F)c12 (stereo partly drawn) [Example 148]

>  <measurement.label>
IC50

>  <assay.value>
38 nM

$$$$
>  <compound>
CCc1c(F)ccc2cc(O)cc(-c3ncc4c(N5C6CCC(C(N)=O)C5CC6)nc(OC[C@@]56CCCN5C[C@H](F)C6)nc4c3F)c12 (relative stereo) [Example 123]

>  <measurement.label>
IC50

>  <assay.value>
47 nM

$$$$
>  <compound>
CCc1c(F)ccc2cc(O)cc(-c3ncc4c(N5CCCC(N)CC5)nc(OC[C@@]56CCCN5C[C@H](F)C6)nc4c3F)c12 (stereo partly drawn) [Example 143]

>  <measurement.label>
IC50

>  <assay.value>
62 nM

$$$$
>  <compound>
CCc1c(F)ccc2cc(O)cc(-c3ncc4c(N5CCCC(S(=O)(=O)NC)C5)nc(OC[C@@]56CCCN5C[C@H](F)C6)nc4c3F)c12 (stereo partly drawn) [Example 79]

>  <measurement.label>
IC50

>  <assay.value>
5 nM

$$$$

* * *

# measured.on: His-tagged KRAS G12D protein (Homo sapiens, UniProt P01116, G12D)
# experiment: biochemical
Parameter: IC50. Scope: all listed entries.
measurement.label: IC50 (nM)

>  <compound>
CCc1c(F)ccc2cc(O)cc(-c3ncc4c(N5CCCC(c6c[nH]cn6)C5)nc(OC[C@@]56CCCN5C[C@H](F)C6)nc4c3F)c12 (stereo partly shown) [Example 106]

>  <measurement.label>
IC50

>  <assay.value>
10

$$$$
>  <compound>
C=CCC1CCCc2cc(O)cc(-c3ncc4c(N5CCC[C@@](C)(O)C5)nc(OC[C@@]56CCCN5C[C@H](F)C6)nc4c3F)c21 (stereo partly shown) [Example 175]

>  <measurement.label>
IC50

>  <assay.value>
8

$$$$
>  <compound>
CCc1c(F)ccc2cc(O)cc(-c3ncc4c(N5CCCCC(C)(O)C5)nc(OC[C@@]56CCCN5C[C@H](F)C6)nc4c3F)c12 (single isomer, unassigned) [Example 136]

>  <measurement.label>
IC50

>  <assay.value>
10

$$$$
>  <compound>
CCc1c(F)ccc2cc(O)cc(-c3ncc4c(N5CCC[C@H](C(N)=O)C5)nc(OC[C@@]56CCCN5C[C@H](F)C6)nc4c3F)c12 [Example 90]

>  <measurement.label>
IC50

>  <assay.value>
16

$$$$
